test.system: olfactory receptor OR5K1 (Homo sapiens)
Construct: expressed in transfected cells; host or cells: HEK293
Sequence (Q8NHB7 whole entry): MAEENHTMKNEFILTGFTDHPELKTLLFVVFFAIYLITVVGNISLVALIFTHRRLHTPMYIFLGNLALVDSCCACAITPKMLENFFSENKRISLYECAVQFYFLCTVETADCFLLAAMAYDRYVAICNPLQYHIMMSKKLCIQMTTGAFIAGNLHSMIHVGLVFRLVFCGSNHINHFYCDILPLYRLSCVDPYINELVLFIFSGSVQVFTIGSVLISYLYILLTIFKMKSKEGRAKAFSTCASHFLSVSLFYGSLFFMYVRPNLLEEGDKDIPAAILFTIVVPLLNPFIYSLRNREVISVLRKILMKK
assay.overview: Antagonist assay: inhibition of OR5K1 response to 2,6-dimethylpyrazine (luciferase reporter)
Type: cell-based
particulars: HEK293 cells expressing OR5K1; 2,6-dimethylpyrazine 1 mM + test substance 300 μM (cytotoxic flavoring agents re-evaluated at 333 μM + 100 μM); read-out: Inhibition rate (receptor response-inhibiting rate)
measurement.name: inhibition at 300 µM

Check out these entries, answers already filled in.
- molecule: "CC(C)=CCCC(C)=CC=O [citral, 3,7-dimethyl-2,6-octadienal]"
  test.system: "olfactory receptor OR5K1 (Homo sapiens)"
  result: "≥ 75%"
- molecule: "CC(=O)C1=C(C)C2CC3(C1)C(C)CCC3C2(C)C (stereo not drawn) [acetyl cedrene]"
  test.system: "olfactory receptor OR5K1 (Homo sapiens)"
  result: "≥ 50%"
- molecule: "CC(C)=CCCC(C)CC=O (stereo not drawn) [citronellal, 3,7-dimethyl-6-octenal]"
  test.system: "olfactory receptor OR5K1 (Homo sapiens)"
  result: "≥ 50%"
- molecule: "CC(C)=CCCC(C)CCOCC=O (stereo not drawn) [citronellyloxyacetaldehyde, 6,10-dimethyl-3-oxa-9-undecenal]"
  test.system: "olfactory receptor OR5K1 (Homo sapiens)"
  result: "≥ 40%"
- molecule: "CC(C=O)Cc1ccc(C(C)(C)C)cc1 (stereo not drawn) [lilial]"
  test.system: "olfactory receptor OR5K1 (Homo sapiens)"
  result: "≥ 50%"

Report inhibition at 300 µM, nothing else, for this molecule: CC(=O)O[C@]1(C)CC[C@@]23C[C@@H]1C(C)(C)[C@@H]2CC[C@H]3C [cedryl acetate] ≥ 50%

Provide one value: measured inhibition at 300 µM of CC1(C)CCCC2(C)C1CCC1(C)OCCC12 (stereo not drawn) [Ambrotech] ≥ 50%

Provide measured inhibition at 300 µM value, entry: CC(C=O)C1CCCCC1 (stereo not drawn) [Pollenal II, 2-cyclohexylpropanal] ≥ 50%

Indicate the recorded inhibition at 300 µM value for this molecule: O=CC=Cc1ccccc1 [cinnamaldehyde] ≥ 50%

Note inhibition at 300 µM for the molecule shown: CC(=O)c1cc2c(cc1C)C(C)(C)C(C)CC2(C)C (stereo not drawn) [Tonalid] ≥ 75%

Provide inhibition at 300 µM value for the following molecule: CCCCCCOC(=O)c1ccccc1O [hexyl salicylate] ≥ 40%

Item C=C(OCC)C1C(C)(C)CC(=O)CC1(C)C [kephalis] : provide inhibition at 300 µM ≥ 50%

Provide measured inhibition at 300 µM value, entry: C=CCCC(=O)C1=CCCC(C)(C)C1 [Dynascone] ≥ 40%

// Input: O=C(OCCc1ccccc1)c1ccccc1O [phenylethyl salicylate] . Output its inhibition at 300 µM only. ≥ 75%

###

test.system: olfactory receptor OR5K1 (Homo sapiens)
Construct: expressed in transfected cells; host or cells: HEK293
assay.overview: Antagonist assay: inhibition of OR5K1 response to 2,6-dimethylpyrazine (luciferase reporter)
Type: cell-based
particulars: HEK293 cells expressing OR5K1; 2,6-dimethylpyrazine 1 mM + test substance 300 μM (cytotoxic flavoring agents re-evaluated at 333 μM + 100 μM); read-out: Inhibition rate (receptor response-inhibiting rate)
Description: The receptor response-inhibiting rate of a test substance was calculated as follows. The receptor activity (X−Y) by stimulation with 2,6-dimethylpyrazine alone was determined by subtracting the luminescence value (Y) in cells to which the receptor was introduced but were not stimulated with 2,6-dimethylpyrazine from the luminescence value (X) derived from firefly luciferase induced by stimulation with 2,6-dimethylpyrazine alone. […]
inhibition at 300 µM: recorded values

Study these solved cases before continuing.
- molecule: "O=C1CCCCCCCCCCCC(=O)OCCO1 [ethylene brassylate, 1,4-dioxacyclo-heptadecane-5,17-dione]"
  measurement.name: "inhibition at 300 µM"
  result: "≥ 40%"
- molecule: "C=CCc1ccc(O)c(OC)c1 [eugenol, 1-allyl-3-methoxy-4-hydroxybenzene]"
  measurement.name: "inhibition at 300 µM"
  result: "≥ 40%"
- molecule: "CCC=C(C)C(O)CCCCC (stereo not shown)"
  measurement.name: "inhibition at 300 µM"
  result: "≥ 75%"
- molecule: "CC(C)[C@H]1CC[C@@H](CO)CC1 [mayol, cis-4-isopropyl-cyclohexylmethanol]"
  measurement.name: "inhibition at 300 µM"
  result: "≥ 40%"
- molecule: "CC(C)CCCC(C)CCO (stereo not shown) [tetrahydrogeraniol, 3,7-dimethyl-1-octanol]"
  measurement.name: "inhibition at 300 µM"
  result: "≥ 50%"

Moving on to the next molecule.
Give inhibition at 300 µM for CC(=O)C1(C)CC2=C(CCCC2(C)C)CC1C (stereo not shown) ≥ 75%
